meta.source: ChEMBL document CHEMBL1126582

CC50: recorded values
test: In vitro for cytotoxicity in MT-4 lymphocytes in the absence of HIV infection; type: cell-based, MT4; details: human
Outcome Measure: CC50

Input Smiles | Outcome Measure | Result
CC(C)[C@H](NC(=O)N(C)Cc1nccs1)C(=O)N[C@@H](Cc1ccccc1)[C@H](O)[C@@H](O)[C@H](Cc1ccccc1)NC(=O)[C@H](NC(=O)N(C)Cc1csc(N)n1)C(C)C | CC50 | > 100 µM
CC(C)[C@H](NC(=O)N1CCN(c2ccccc2)CC1)C(=O)N[C@@H](Cc1ccccc1)[C@@H](O)[C@@H](O)[C@H](Cc1ccccc1)NC(=O)[C@H](NC(=O)N1CCN(c2ccccc2)CC1)C(C)C | CC50 | 18 µM
CC(C)[C@H](NS(=O)(=O)CCc1ccncc1)C(=O)N[C@@H](Cc1ccccc1)[C@H](O)[C@H](O)[C@H](Cc1ccccc1)NC(=O)[C@H](NS(=O)(=O)CCc1ccncc1)C(C)C | CC50 | > 100 µM

###

test: In vitro for cytotoxicity in MT-4 lymphocytes in the absence of HIV infection; assay type: cell-based, MT4; details: human
CC50 under 50 µM gets yes, anything at or over 50 µM gets no.

Compound | Assigned Label
CC(C)[C@H](NC(=O)N1CCN(Cc2ccccc2)CC1)C(=O)N[C@@H](Cc1ccccc1)[C@@H](O)[C@@H](O)[C@H](Cc1ccccc1)NC(=O)[C@H](NC(=O)N1CCN(Cc2ccccc2)CC1)C(C)C | yes
CC(C)[C@H](NS(=O)(=O)CCc1ccccn1)C(=O)N[C@@H](Cc1ccccc1)[C@@H](O)[C@H](O)[C@H](Cc1ccccc1)NC(=O)[C@H](NS(=O)(=O)CCc1ccccn1)C(C)C | no
CC(C)[C@H](NC(=O)OCCN1CCCC1)C(=O)N[C@@H](Cc1ccccc1)[C@@H](O)[C@H](Cc1ccccc1)NC(=O)[C@H](NC(=O)OCc1ccccc1)C(C)C | yes
CC(C)[C@H](NC(=O)CCc1ccccn1)C(=O)N[C@@H](Cc1ccccc1)C(O)[C@H](Cc1ccccc1)NC(=O)[C@H](NC(=O)CCc1ccccn1)C(C)C (stereo partly specified) | no
CC(C)[C@H](NS(=O)(=O)N(C)Cc1ccccn1)C(=O)N[C@@H](Cc1ccccc1)[C@@H](O)[C@H](O)[C@H](Cc1ccccc1)NC(=O)[C@H](NS(=O)(=O)N(C)Cc1ccccn1)C(C)C | no
CC(C)[C@H](NS(=O)(=O)N(C)Cc1ccccn1)C(=O)N[C@@H](Cc1ccccc1)[C@@H](O)[C@@H](O)[C@H](Cc1ccccc1)NC(=O)[C@H](NS(=O)(=O)N(C)Cc1ccccn1)C(C)C | no
CC(C)[C@H](NC(=O)OCC1CCCN(C)C1)C(=O)N[C@@H](Cc1ccccc1)[C@@H](O)[C@H](Cc1ccccc1)NC(=O)[C@H](NC(=O)OCc1ccccc1)C(C)C (stereo partly specified) | yes
CC(C)[C@H](NC(=O)N1CCN(C)CC1)C(=O)N[C@@H](Cc1ccccc1)[C@@H](O)[C@H](Cc1ccccc1)NC(=O)[C@H](NC(=O)OCc1ccccc1)C(C)C | no
CC(C)[C@H](NS(=O)(=O)CCc1ccccn1)C(=O)N[C@@H](Cc1ccccc1)[C@H](O)[C@H](O)[C@H](Cc1ccccc1)NC(=O)[C@H](NS(=O)(=O)CCc1ccccn1)C(C)C | no
CC(C)[C@H](NC(=O)N1CCOCC1)C(=O)N[C@@H](Cc1ccccc1)[C@H](O)[C@H](O)[C@H](Cc1ccccc1)NC(=O)[C@H](NC(=O)N1CCOCC1)C(C)C | no
CC(C)[C@H](NS(=O)(=O)CCc1ccncc1)C(=O)N[C@@H](Cc1ccccc1)[C@@H](O)[C@H](O)[C@H](Cc1ccccc1)NC(=O)[C@H](NS(=O)(=O)CCc1ccncc1)C(C)C | no
